Measurement target: E3 ubiquitin-protein ligase XIAP (Homo sapiens)
Experiment summary: small molecules binding XIAP protein – biophysical, small-molecule microarray, fluorescence 635 nm, primary screen (AID 1181)
Test conditions: higher = more signal
Everything with composite z-score lower than -0.09 is no; everything else, including exactly -0.09, is yes.

Worked examples, 8 compounds total:
compound="O=C1C2C=CC(C(O)c3ccccn3)N(Nc3ccccc3F)C2C(=O)N1c1ccccc1 (stereo not drawn)" group=yes
compound=COc1ccc([Si](C)(C)[C@@H]2[C@@H](CCO)O[C@]3(C(=O)N(Cc4cccc(N(C=O)c5ccccc5)c4)c4ccccc43)[C@H]2C)cc1 group=yes
compound=O=C1c2ccccc2[C@@]2(Cc3ccccc3N(Cc3ccccc3)C2=O)[C@H](c2ccc(CO)cc2)N1Cc1ccccc1C(F)(F)F group=no
compound=Cc1ccc(S[C@]2(C(=O)NCCCN(C)C)CC(=O)N(C(C)C)[C@@H]2c2ccc(CO)cc2I)cc1 group=no
compound=CCCNC(=O)[C@@]1(C)c2ccccc2C(=O)N(Cc2cc(C(F)(F)F)cc(C(F)(F)F)c2)[C@H]1c1ccc(CO)cc1 group=no
compound=COCCOC(=O)N1C(=O)[C@@]2(c3cc(C#CC4=CCCCC4)ccc31)[C@H](c1ccc(OCCO)cc1)N1[C@H](c3ccccc3)[C@H](c3ccccc3)OC(=O)[C@H]1[C@@H]2C(=O)Nc1nc2ccccc2s1 group=yes
compound="C=CCC(OC(C)=O)[C@@H]1[C@@H](N(Cc2ccc(-c3ccccc3)cc2)C(=O)c2ccc(C)cc2)c2cc(OCCCO)ccc2N1C(=O)c1ccc2ccccc2n1 (stereo partly drawn)" group=yes
compound=[N-]=[N+]=NCc1ccccc1C[C@@]1(C(=O)NCc2ccccc2)N=C(c2ccc(OCCCO)cc2)O[C@@H]1c1ccccc1CN=[N+]=[N-] group=no

(Q) # bool: composite z-score of `CC[C@@H]1C=C(C(=O)O)[C@H](c2ccc(C(C)C)cc2)N1S(=O)(=O)c1ccc(C)cc1` >= -0.09
(A) yes

(Q) # bool: composite z-score of `CCCCCCC#C[Si](O[C@H](c1ccccc1)c1cn([C@H](C)c2ccccc2)nn1)(C(C)C)C(C)C` >= -0.09
(A) no

(Q) # bool: composite z-score of `CCCC[C@@H]1C[C@H]1[C@@H](NC(=O)c1ccco1)c1ccccc1` >= -0.09
(A) yes

(Q) # bool: composite z-score of [N-]=[N+]=NCc1ccccc1C[C@]1(C(=O)NCC(O)CO)COC(c2ccc(OCCCO)cc2)=N1 (stereo partly drawn) >= -0.09
(A) no

(Q) # bool: composite z-score of `C=C(CCCC)/C(=C/C[C@H](OC(C)=O)c1ccc(CO)o1)c1cc(C(=O)OC)ccc1OC` >= -0.09
(A) no
